Target: Estrogen receptor beta (Homo sapiens) (UniProt Q92731)
Sequence (Q92731 whole entry, looked up): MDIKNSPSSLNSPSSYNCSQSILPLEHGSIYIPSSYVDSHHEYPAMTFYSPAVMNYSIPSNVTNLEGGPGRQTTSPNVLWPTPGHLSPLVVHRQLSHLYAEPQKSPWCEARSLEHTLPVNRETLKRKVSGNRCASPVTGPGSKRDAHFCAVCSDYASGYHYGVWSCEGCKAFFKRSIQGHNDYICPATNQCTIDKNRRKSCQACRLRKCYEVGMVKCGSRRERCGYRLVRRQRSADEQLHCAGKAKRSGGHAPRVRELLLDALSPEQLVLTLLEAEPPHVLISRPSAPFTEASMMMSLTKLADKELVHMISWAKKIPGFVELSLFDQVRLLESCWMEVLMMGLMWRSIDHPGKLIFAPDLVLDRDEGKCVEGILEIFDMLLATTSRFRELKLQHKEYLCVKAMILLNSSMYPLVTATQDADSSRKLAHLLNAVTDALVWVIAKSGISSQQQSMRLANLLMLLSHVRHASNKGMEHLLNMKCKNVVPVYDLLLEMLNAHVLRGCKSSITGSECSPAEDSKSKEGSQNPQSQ
Assay: displacement of fluorescent estrogen from ERbeta – cell-based, Cos7 ERbeta-GFP, flow cytometry, primary screen (AID 1210);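 note: 0% = DMSO vehicle wells and 100% = complete loss of labeled estradiol signal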
Details: fluorescent estrogen binding, ligand binding inhibition, at 0.1 µM, stronger effect = higher value
Label yes (1) when inhibition >= 30%; otherwise no (0).

molecule: CCOc1ccccc1N1CSC2=C(C#N)C(c3c(OC)ccc4ccccc34)CC(=O)N2C1 (centres undefined)
target.of.assay: Estrogen receptor beta (Homo sapiens) (UniProt Q92731)
discrete.label: no (0)
//
molecule: O=C(Oc1cccc(-c2cnc3ccccc3n2)c1)c1ccco1
target.of.assay: Estrogen receptor beta (Homo sapiens) (UniProt Q92731)
discrete.label: no (0)
//
molecule: Cc1ccc(-c2cc(C(=O)NCc3ccco3)c3ccccc3n2)o1
target.of.assay: Estrogen receptor beta (Homo sapiens) (UniProt Q92731)
discrete.label: yes (1)
//
molecule: COc1ccc(N2Cc3cccc(C(=O)O)c3C2=O)cc1
target.of.assay: Estrogen receptor beta (Homo sapiens) (UniProt Q92731)
discrete.label: yes (1)
//
molecule: CCN1CCN(Cc2c(O)c(Cl)cc3c(C)cc(=O)oc23)CC1
target.of.assay: Estrogen receptor beta (Homo sapiens) (UniProt Q92731)
discrete.label: no (0)
//
molecule: COc1ccc(C2CC(c3cccs3)=NN2c2ccc(C=O)cc2)cc1 (centres undefined)
target.of.assay: Estrogen receptor beta (Homo sapiens) (UniProt Q92731)
discrete.label: no (0)
//
molecule: COc1cc2c(cc1OC)C(Cc1ccc(O)cc1)NCC2 (centres undefined)
target.of.assay: Estrogen receptor beta (Homo sapiens) (UniProt Q92731)
discrete.label: no (0)
//
molecule: C/C=C(/C(=C/C)c1ccc(O)cc1)c1ccc(O)cc1
target.of.assay: Estrogen receptor beta (Homo sapiens) (UniProt Q92731)
discrete.label: yes (1)
//
molecule: Cc1snc2sc(C(=O)c3ccc(Br)cc3)c(N)c12
target.of.assay: Estrogen receptor beta (Homo sapiens) (UniProt Q92731)
discrete.label: no (0)
//
molecule: O=c1cc(-c2ccc(O)c(O)c2)oc2c(C3O[C@H](CO)[C@@H](O)[C@H](O)[C@H]3O)c(O)cc(O)c12 (some centres undefined)
target.of.assay: Estrogen receptor beta (Homo sapiens) (UniProt Q92731)
discrete.label: no (0)
//
molecule: O=C(Cn1nnc(-c2ccc3c(c2)OCO3)n1)NCc1ccco1
target.of.assay: Estrogen receptor beta (Homo sapiens) (UniProt Q92731)
discrete.label: no (0)
//
molecule: O=C(NCc1ccco1)c1cc2c(s1)CSC2
target.of.assay: Estrogen receptor beta (Homo sapiens) (UniProt Q92731)
discrete.label: no (0)
//
molecule: O=C(Cc1cccs1)Nc1nncs1
target.of.assay: Estrogen receptor beta (Homo sapiens) (UniProt Q92731)
discrete.label: no (0)
//
molecule: O=[N+]([O-])c1cc(/C=N/N2CCN(C3c4ccccc4-c4ccccc43)CC2)ccc1Cl
target.of.assay: Estrogen receptor beta (Homo sapiens) (UniProt Q92731)
discrete.label: no (0)
//
molecule: C/C(N)=C(/C#N)C(=O)CSc1nnc(Nc2ccccc2C)s1
target.of.assay: Estrogen receptor beta (Homo sapiens) (UniProt Q92731)
discrete.label: no (0)
//
molecule: CCOC(=O)c1c(/N=C/c2ccc(O)cc2O)sc2c1CCC2
target.of.assay: Estrogen receptor beta (Homo sapiens) (UniProt Q92731)
discrete.label: no (0)
//
molecule: COc1ccc(C2Nc3ccccc3C(=O)N2c2ccccc2)cc1COc1ccccn1 (centres undefined)
target.of.assay: Estrogen receptor beta (Homo sapiens) (UniProt Q92731)
discrete.label: no (0)
//
molecule: C/C(N)=C(/C#N)C(=O)CSc1nnc(Nc2cccc(C)c2C)s1
target.of.assay: Estrogen receptor beta (Homo sapiens) (UniProt Q92731)
discrete.label: no (0)
//
molecule: C=C1C2C[C@H](O)C(C)(C)[C@@]2(O)[C@H](O)C[C@]23C[C@@](C)(O)[C@H](CC[C@H]12)[C@H]3O (some centres undefined)
target.of.assay: Estrogen receptor beta (Homo sapiens) (UniProt Q92731)
discrete.label: no (0)
//
molecule: CCOC(=O)N1CCN(c2ccc(O)cc2)CC1
target.of.assay: Estrogen receptor beta (Homo sapiens) (UniProt Q92731)
discrete.label: yes (1)
//
molecule: Cc1ccnc(NS(=O)(=O)c2ccc(NC(=O)Cc3cccs3)cc2)n1
target.of.assay: Estrogen receptor beta (Homo sapiens) (UniProt Q92731)
discrete.label: yes (1)
//
molecule: COc1cccc(-c2nnc(NC(=O)Cc3cccs3)s2)c1
target.of.assay: Estrogen receptor beta (Homo sapiens) (UniProt Q92731)
discrete.label: yes (1)
//
molecule: O=C(Nc1cccc(-c2cnc3ccccc3n2)c1)c1cccc(NC(=O)c2ccco2)c1
target.of.assay: Estrogen receptor beta (Homo sapiens) (UniProt Q92731)
discrete.label: yes (1)
//
molecule: N=c1c(C(=O)NCc2ccc(F)cc2)cc2c(=O)n3ccccc3nc2n1Cc1cccnc1
target.of.assay: Estrogen receptor beta (Homo sapiens) (UniProt Q92731)
discrete.label: yes (1)
//
molecule: Cc1nn(-c2ccccc2)c(Cl)c1/C=N/Nc1ccc(S(=O)(=O)Nc2ccccc2C(=O)O)cc1[N+](=O)[O-]
target.of.assay: Estrogen receptor beta (Homo sapiens) (UniProt Q92731)
discrete.label: yes (1)
//
molecule: CCOc1ccc(CC2S/C(=N/c3ccccn3)NC2=O)cc1 (centres undefined)
target.of.assay: Estrogen receptor beta (Homo sapiens) (UniProt Q92731)
discrete.label: no (0)
//
molecule: CCC1(C)NC(=O)N(CC(=O)Nc2sc3c(c2C(N)=O)CCC3)C1=O (centres undefined)
target.of.assay: Estrogen receptor beta (Homo sapiens) (UniProt Q92731)
discrete.label: yes (1)
//
molecule: COc1ccc2c(c1)C1C=CCC1C(c1cc3c(cc1Br)OCO3)N2 (centres undefined)
target.of.assay: Estrogen receptor beta (Homo sapiens) (UniProt Q92731)
discrete.label: yes (1)
//
molecule: COc1ccc(-c2cn3c(C)c(C(=O)Nc4ccncc4)sc3n2)cc1
target.of.assay: Estrogen receptor beta (Homo sapiens) (UniProt Q92731)
discrete.label: no (0)
//
molecule: CCCN(CCC)S(=O)(=O)c1ccc(NC(=O)Cc2cccs2)cc1
target.of.assay: Estrogen receptor beta (Homo sapiens) (UniProt Q92731)
discrete.label: no (0)
//
molecule: Cc1cc(O)ccc1C1(c2ccc(O)cc2C)OC(=O)c2ccccc21
target.of.assay: Estrogen receptor beta (Homo sapiens) (UniProt Q92731)
discrete.label: no (0)
//
molecule: Cc1ccc(C)c(SCC(=O)OCC(=O)c2ccco2)c1
target.of.assay: Estrogen receptor beta (Homo sapiens) (UniProt Q92731)
discrete.label: yes (1)
//
molecule: Oc1ccc(/C=N/n2c(-c3ccco3)csc2=Nc2cccnc2)c(O)c1
target.of.assay: Estrogen receptor beta (Homo sapiens) (UniProt Q92731)
discrete.label: no (0)
//
molecule: CN(CC(=O)NC(=O)NCc1ccco1)Cc1nc2ccccc2c(=O)[nH]1
target.of.assay: Estrogen receptor beta (Homo sapiens) (UniProt Q92731)
discrete.label: yes (1)
//
molecule: O=C(COC(=O)c1ccccc1)NCc1ccco1
target.of.assay: Estrogen receptor beta (Homo sapiens) (UniProt Q92731)
discrete.label: no (0)
//
molecule: CC1CCCN(c2nc3c(c(=O)[nH]c(=O)n3C)n2Cc2ccccc2Cl)C1 (centres undefined)
target.of.assay: Estrogen receptor beta (Homo sapiens) (UniProt Q92731)
discrete.label: yes (1)
//
molecule: NNc1nc2sc3c(c2c(=O)[nH]1)CCc1ccccc1-3
target.of.assay: Estrogen receptor beta (Homo sapiens) (UniProt Q92731)
discrete.label: yes (1)
//
molecule: Cc1ccc(S(=O)(=O)NCCn2c(C)cc3ccccc32)cc1
target.of.assay: Estrogen receptor beta (Homo sapiens) (UniProt Q92731)
discrete.label: no (0)
//
molecule: COc1cc(/C=C2\OC(=O)c3c(OC)cccc32)ccc1O
target.of.assay: Estrogen receptor beta (Homo sapiens) (UniProt Q92731)
discrete.label: no (0)
//
molecule: Cc1cs/c(=N\N=C\c2ccc(O)cc2)n1Cc1ccco1
target.of.assay: Estrogen receptor beta (Homo sapiens) (UniProt Q92731)
discrete.label: no (0)
//
molecule: COc1ccc(/C=N/NC(=O)c2nc(-c3ccccc3)n(-c3ccccc3)n2)c(O)c1
target.of.assay: Estrogen receptor beta (Homo sapiens) (UniProt Q92731)
discrete.label: yes (1)
//
molecule: COC(=O)c1c(NC(=O)Cc2cccs2)sc2c1CCCC2
target.of.assay: Estrogen receptor beta (Homo sapiens) (UniProt Q92731)
discrete.label: no (0)
//
molecule: Cc1ccc(S(=O)(=O)Cc2ccc(C(=O)N3CCc4ccccc4C3)o2)cc1
target.of.assay: Estrogen receptor beta (Homo sapiens) (UniProt Q92731)
discrete.label: no (0)
//
molecule: Nc1nc(N)c2sc3nc4c(cc3c2n1)CCC4
target.of.assay: Estrogen receptor beta (Homo sapiens) (UniProt Q92731)
discrete.label: no (0)
